# assayOverview: Pharmacokinetic study 3: P5P analog 16vi and Compound II.I., IV and PO, rats
# Type: in vivo
# assayConditions: male, CD, plasma, po; orally 10 mg/kg, rat; read-out: dosed compound Cmax in plasma
endpointLabel: Cmax (ng/mL)
Dear colleague, please return just the value in ng/mL, with no unit written.

// query Given the molecule Cc1ncc(COP(=O)(N[C@@H](Cc2ccccc2)C(=O)OC(C)C)Oc2ccccc2)c(C=O)c1O (stereo partly shown) [Compound 16vi] , what is its reported Cmax?
// result 1650

###

# assayOverview: Pharmacokinetic study 2: P5P analogs 16 and 16v, IV and PO, rats
# Type: in vivo
# assayConditions: male, CD, plasma; IV 1 mg/kg, rat; read-out: prodrug (P5P analog) time of Cmax
endpointLabel: Tmax (min)
Dear colleague, please return just the value in min, with no unit written.

// query Given the molecule CCC(CC)COC(=O)[C@H](C)NP(=O)(OCc1cnc(C)c(O)c1C=O)Oc1ccccc1 (stereo partly shown) [Compound 16v] , what is its reported Tmax?
// result 6

###

# Test system: plasma enzymes
# assayConditions: Sprague Dawley, rat
endpointLabel: P5P formed (µM)
Dear colleague, please return just the value in µM, with no unit written.

{"compound": "Cc1ncc(COP(=O)(N[C@@H](C)C(=O)OC(C)C)Oc2ccccc2)c(CN)c1O (some centres unmarked)", "quantityUnit": "µM", "P5P formed": 0}

// query Quick check: P5P formed on plasma enzymes, item Cc1ncc(COP(=O)(NC(CC(F)(F)F)C(=O)OC(C)C)Oc2ccccc2)c(C=O)c1O (centres unmarked) [Compound 16xi] ?
// result 0.6

// query Quick check: P5P formed on plasma enzymes, item Cc1ncc(COP(=O)(N[C@@H](C)C(=O)OC(C)C)Oc2ccc(OC(F)(F)F)cc2)c(CN)c1O (some centres unmarked) [Compound 14xi] ?
// result 0.3

// query Quick check: P5P formed on plasma enzymes, item Cc1ncc(COP(=O)(N[C@@H](Cc2ccc(OCc3ccccc3)cc2)C(=O)OC(C)C)Oc2ccccc2)c(CN)c1O (some centres unmarked) ?
// result 0.3

// query Quick check: P5P formed on plasma enzymes, item CCC(CC)COC(=O)[C@H](C)NP(=O)(OCc1cnc(C)c(O)c1CN)Oc1ccccc1 (some centres unmarked) [Compound 14i] ?
// result 0.17

// query Quick check: P5P formed on plasma enzymes, item Cc1ncc(COP(=O)(N[C@H](C(=O)OC(C)C)C2CCCC2)Oc2ccccc2)c(CO)c1O (some centres unmarked) ?
// result 0.2

// query Quick check: P5P formed on plasma enzymes, item Cc1ncc(COP(=O)(NC(CC(F)(F)F)C(=O)OC(C)C)Oc2ccccc2)c(CO)c1O (centres unmarked) ?
// result 0.1

// query Quick check: P5P formed on plasma enzymes, item Cc1ncc(CO[P@@](=O)(N[C@@H](C)C(=O)OC(C)C)Oc2ccccc2)c(CO)c1O [Compound 15i] ?
// result 0.15

// query Quick check: P5P formed on plasma enzymes, item Cc1ncc(COP(=O)(N[C@@H](Cc2ccc(OCc3ccccc3)cc2)C(=O)OC(C)C)Oc2ccccc2)c(C=O)c1O (some centres unmarked) ?
// result 2.4

// query Quick check: P5P formed on plasma enzymes, item Cc1ncc(COP(=O)(N[C@@H](C)C(=O)OC(C)C)Oc2cccc3ccccc23)c(CN)c1O (some centres unmarked) [Compound 14ix] ?
// result 0.4

// query Quick check: P5P formed on plasma enzymes, item Cc1ncc(COP(=O)(N[C@@H](C)C(=O)OC(C)C)Oc2ccc(Cl)cc2)c(CN)c1O (some centres unmarked) [Compound 14v] ?
// result 0.3

// query Quick check: P5P formed on plasma enzymes, item [2H]C([2H])([2H])C(OC(=O)[C@H](C)NP(=O)(OCc1cnc(C)c(O)c1C=O)Oc1ccccc1)C([2H])([2H])[2H] (some centres unmarked) ?
// result 6.3

// query Quick check: P5P formed on plasma enzymes, item Cc1ncc(COP(=O)(N[C@@H](C)C(=O)Oc2ccc3c(c2)CCCC3)Oc2ccccc2)c(C=O)c1O (some centres unmarked) ?
// result 4.9

// query Quick check: P5P formed on plasma enzymes, item [2H]C([2H])([2H])C([2H])(OC(=O)[C@H](C)NP(=O)(OCc1cnc(C)c(O)c1C=O)Oc1ccccc1)C([2H])([2H])[2H] (some centres unmarked) ?
// result 0.3

###

# System: plasma enzymes
# assayConditions: Sprague Dawley, rat
Would you mind labelling by relative P5P formed? At or over 10% is class 1, under is class 0.

// query Please indicate if the recorded relative P5P formed for COC(=O)[C@H](C)NP(=O)(OCc1cnc(C)c(O)c1CO)Oc1ccccc1 (some centres unmarked) [Compound 15vi] meets or exceeds 10%.
// result class 0

// query Please indicate if the recorded relative P5P formed for Cc1ncc(COP(=O)(N[C@@H](C)C(=O)OC2CCN(C)CC2)Oc2ccccc2)c(C=O)c1O (some centres unmarked) meets or exceeds 10%.
// result class 1

// query Please indicate if the recorded relative P5P formed for Cc1ncc(COP(=O)(N[C@@H](C)C(=O)OC(C)C)Oc2ccccc2)c(CN)c1O (some centres unmarked) meets or exceeds 10%.
// result class 0

// query Please indicate if the recorded relative P5P formed for COC(=O)[C@@H]1CCCN1P(=O)(OCc1cnc(C)c(O)c1C=O)Oc1ccccc1 (some centres unmarked) meets or exceeds 10%.
// result class 1

// query Please indicate if the recorded relative P5P formed for Cc1ncc(COP(=O)(N[C@@H](C)C(=O)OCc2ccccc2)Oc2ccccc2)c(C=O)c1O (some centres unmarked) [Compound 16ix] meets or exceeds 10%.
// result class 1

###

# Test system: plasma enzymes
# assayConditions: Sprague Dawley, rat
endpointLabel: P5P formed (µM)
Dear colleague, please return just the value in µM, with no unit written.

// query Given the molecule Cc1ncc(COP(=O)(N[C@H](C(=O)OC(C)C)C2CCCC2)Oc2ccccc2)c(C=O)c1O (some centres unmarked) [Compound 16xxviii] , what is its reported P5P formed?
// result 0.4

// query Given the molecule Cc1ccc(OP(=O)(N[C@@H](C)C(=O)OC(C)C)OCc2cnc(C)c(O)c2CN)cc1 (some centres unmarked) [Compound 14xvi] , what is its reported P5P formed?
// result 0.3

###

# System: plasma enzymes
# assayConditions: Sprague Dawley, rat
Listed molecules paired with reported P5P formed
Dear colleague, please return just the value in µM, with no unit written.

Look over these answered cases.
{"molecule": "Cc1ccc(OC(=O)[C@H](C)NP(=O)(OCc2cnc(C)c(O)c2C=O)Oc2ccccc2)cc1 (stereo partly shown)", "assaySystem": "plasma enzymes", "quantityUnit": "µM", "P5P formed": 2}
{"molecule": "COC(=O)[C@@H]1CCCN1P(=O)(OCc1cnc(C)c(O)c1C=O)Oc1ccccc1 (stereo partly shown)", "assaySystem": "plasma enzymes", "quantityUnit": "µM", "P5P formed": 0.4}
{"molecule": "Cc1ccc(OP(=O)(N[C@@H](C)C(=O)OC(C)C)OCc2cnc(C)c(O)c2C=O)cc1 (stereo partly shown)", "assaySystem": "plasma enzymes", "quantityUnit": "µM", "P5P formed": 0.3}

// query Given the molecule Cc1ncc(COP(=O)(N[C@@H](C)C(=O)OC(C)C)Oc2ccccc2)c(CO)c1O (stereo partly shown) [Compound 15ii] , what is its reported P5P formed?
// result 0

// query Given the molecule [2H]c1c([2H])c([2H])c(OP(=O)(N[C@@H](C)C(=O)OC(C)C)OCc2cnc(C)c(O)c2C=O)c([2H])c1[2H] (stereo partly shown) [Compound 16xx] , what is its reported P5P formed?
// result 1.4

// query Given the molecule [2H]C([2H])(NP(=O)(OCc1cnc(C)c(O)c1CN)Oc1ccccc1)C(=O)OC(C([2H])([2H])[2H])C([2H])([2H])[2H] (stereo not shown) , what is its reported P5P formed?
// result 0.3

// query Given the molecule Cc1ncc(COP(=O)(N[C@@H](C)C(=O)OCc2ccccc2)Oc2ccccc2)c(C=O)c1O (stereo partly shown) [Compound 16ix] , what is its reported P5P formed?
// result 10.3

###

# Tested on: plasma enzymes
# assayConditions: Sprague Dawley, rat
Listed compounds paired with reported relative P5P formed
Dear colleague, please return just the value in %, with no unit written.

{"compound": "Cc1ncc(CO[P@@](=O)(N[C@@H](C)C(=O)OC(C)C)Oc2ccccc2)c(C=O)c1O [Compound 16i]", "assaySystem": "plasma enzymes", "relative P5P formed, %": 100.0}
{"compound": "Cc1ncc(COP(=O)(N[C@@H](Cc2ccc(O)cc2)C(=O)OC(C)C)Oc2ccccc2)c(C=O)c1O (stereo partly drawn)", "assaySystem": "plasma enzymes", "relative P5P formed, %": 75.9}
{"compound": "Cc1ncc(COP(=O)(N[C@H](C(=O)OC(C)C)C2CCCC2)Oc2ccccc2)c(C=O)c1O (stereo partly drawn)", "assaySystem": "plasma enzymes", "relative P5P formed, %": 9.8}
{"compound": "CCC(CC)COC(=O)[C@H](C)NP(=O)(OCc1cnc(C)c(O)c1CN)Oc1ccccc1 (stereo partly drawn) [Compound 14i]", "assaySystem": "plasma enzymes", "relative P5P formed, %": 4.0}
{"compound": "Cc1ncc(COP(=O)(N[C@@H](C)C(=O)OC(C)C)Oc2cccc3ccccc23)c(CN)c1O (stereo partly drawn) [Compound 14ix]", "assaySystem": "plasma enzymes", "relative P5P formed, %": 6.3}

// query Quick check: relative P5P formed on plasma enzymes, item Cc1ncc(COP(=O)(N[C@@H](C)C(=O)Oc2ccc3c(c2)CCCC3)Oc2ccccc2)c(CN)c1O (stereo partly drawn) ?
// result 5.3

// query Quick check: relative P5P formed on plasma enzymes, item COCCOC(=O)[C@H](C)NP(=O)(OCc1cnc(C)c(O)c1C=O)Oc1ccccc1 (stereo partly drawn) ?
// result 144.1

// query Quick check: relative P5P formed on plasma enzymes, item Cc1ncc(COP(=O)(N[C@@H](Cc2ccc(OCc3ccccc3)cc2)C(=O)OC(C)C)Oc2ccccc2)c(CN)c1O (stereo partly drawn) ?
// result 8.3

// query Quick check: relative P5P formed on plasma enzymes, item [2H]c1c([2H])c([2H])c(OP(=O)(N[C@@H](C)C(=O)OC(C)C)OCc2cnc(C)c(O)c2CO)c([2H])c1[2H] (stereo partly drawn) ?
// result 7.4

// query Quick check: relative P5P formed on plasma enzymes, item Cc1ncc(COP(=O)(N[C@@H](C)C(=O)OC(C)C)Oc2ccccc2)c(CO)c1O (stereo partly drawn) [Compound 15ii] ?
// result 0.0

// query Quick check: relative P5P formed on plasma enzymes, item Cc1ncc(COP(=O)(N[C@@H](Cc2cn(C(=O)OC(C)(C)C)c3ccccc23)C(=O)OC(C)C)Oc2ccccc2)c(C=O)c1O (stereo partly drawn) ?
// result 7.9

// query Quick check: relative P5P formed on plasma enzymes, item Cc1ncc(COP(=O)(N[C@@H](C)C(=O)OC(C)C)Oc2ccc(OC(F)(F)F)cc2)c(CN)c1O (stereo partly drawn) [Compound 14xi] ?
// result 17.6

// query Quick check: relative P5P formed on plasma enzymes, item Cc1ncc(COP(=O)(NCC(=O)OC(C)C)Oc2ccccc2)c(CN)c1O (stereo not drawn) [Compound 14ii] ?
// result 0.0

// query Quick check: relative P5P formed on plasma enzymes, item [2H]C([2H])(NP(=O)(OCc1cnc(C)c(O)c1CN)Oc1ccccc1)C(=O)OC(C([2H])([2H])[2H])C([2H])([2H])[2H] (stereo not drawn) ?
// result 17.6
